// data source = the supplement of paper PMC10290057

Listed here are compounds together with their documented efficacy.
Tested on: HCT116;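 also: Luminescence-based viability readout, five doses per compound, normalized against on-plate DMSO and empty-well controls, followed by dose-response curve fitting for every drug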
method: efficacy (fitted maximal change in viability relative to DMSO control); higher = less cytotoxic (negative = loss of viability)
assay-context: 48 h
Where a name gives a salt, the structure may show the parent alone.
Field format: number, assumed %, no unit text.

These recorded examples may help you get a feel for the data.
compound	measurement-target	uom	efficacy
N#Cc1ccnc(N2C(=O)CC[C@H]2C(=O)N(c2cncc(F)c2)[C@H](C(=O)NC2CC(F)(F)C2)c2ccccc2Cl)c1	HCT116	%	-25.4
CCCCOc1ccc(C(=O)Nc2ccc(F)cc2F)cc1	HCT116	%	-14.8
COC(=O)N[C@H](C(=O)N1CCC[C@H]1c1ncc(-c2ccc(-c3ccc(-c4cnc([C@@H]5CCCN5C(=O)[C@@H](NC(=O)OC)C(C)C)[nH]4)cc3)cc2)[nH]1)C(C)C [Daclatasvir dihydrochloride]	HCT116	%	-112
COc1cc([C@@H](CC(=O)O)c2ccc(C)c(CN3C[C@@H](C)Oc4ccccc4[S+]3(=O)[O-])c2)cc2nnn(C)c12	HCT116	%	-21.8
O=C1CCC[C@@H]2[C@H]3CCC[N+]4([O-])CCC[C@@H](CN12)[C@@H]34 (some centres not stated)	HCT116	%	-29.8

In: Quick check: efficacy of Cc1cn[nH]c1 [Fomepizole] ?
Out: -18.8

In: Quick check: efficacy of C[C@@H]1Cc2c([nH]c3ccccc23)[C@@H](c2c(F)cc(/C=C/C(=O)O)cc2F)N1CC(C)(C)F [AZD-9496 maleate] ?
Out: -13.1

In: Quick check: efficacy of Cn1cc(-c2cnn3c(N)c(Br)c(C4CCCNC4)nc23)cn1 (configuration not stated) ?
Out: -113
